Tested on: LOX IMVI
assayInfo: NCI tumour cell line growth inhibition, 48 h
The source made the active and inactive calls. No stated cut-off is given here; in the data, active = GI50 up to about 1.1 µM and inactive = higher.

# compound, GI50
rows = [
    ("O=C(O)CC[P+](c1ccccc1)(c1ccccc1)c1ccccc1", "30.7 µM (inactive)"),
    ("CC(=O)O[C@H]1CC[C@@]2(C)C(=CC[C@H]3C4=CC=C(C(C)=O)[C@@]4(C)CCC32)C1 (stereo partly specified)", "15.5 µM (inactive)"),
    ("O=C1C(=c2cc3c(c4ccccc24)=NC24CCCCC2C(c2ccccc2)C=C(c2ccccc2)N34)C(=O)c2ccccc21 (stereo unspecified)", "34.2 µM (inactive)"),
    ("COc1ccc2c(c1O)C(=O)C(CCC(=O)O)CC2 (stereo unspecified)", "> 100 µM (inactive)"),
    ("Cc1cccc2c1Oc1ccccc1C2NC(=O)c1ccc([N+](=O)[O-])cc1 (stereo unspecified)", "> 100 µM (inactive)"),
    ("CCOC(=O)c1c(N/C(S)=N/c2ccccc2)sc2c1CCOC2", "52.7 µM (inactive)"),
    ("CC(=O)OCC1=C(C(=O)O)C(c2ccc3c(c2)OCO3)c2cc3c(cc2O1)OCO3 (stereo unspecified)", "> 100 µM (inactive)"),
    ("SC[C@@H]1COC[C@H](CS)S1", "> 100 µM (inactive)"),
    ("O=C1OC(c2ccccc2)=N/C1=C\\c1ccc([N+](=O)[O-])cc1", "26.4 µM (inactive)"),
    ("CCNC(=O)CCN(C(=O)O)S(=O)(=O)c1ccc(NC(=O)c2ccccc2)cc1", "22.6 µM (inactive)"),
    ("CCCc1ccc(NCc2cc(OC)c(OC)c(OC)c2)cc1", "15.7 µM (inactive)"),
]
